All values here come from patent US20190153108A1.

Target: human Epidermal Growth Factor Receptor (huEGFR) over-expressed in mcl-1-/- mouse embryonic fibroblasts (human, UniProt P00533 25-1210)
Assay: cell-based or functional assay
measure: huEGFR^+ mcl-1^-/- MEF EC50 (nM)
Answers are plain numbers, in nM.

AbG-LB (antibody, V domains shown, synthon LB on reduced interchain Cys) VH: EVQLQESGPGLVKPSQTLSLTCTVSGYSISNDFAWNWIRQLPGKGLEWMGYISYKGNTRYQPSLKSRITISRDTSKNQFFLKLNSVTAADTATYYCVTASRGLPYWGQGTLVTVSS VL: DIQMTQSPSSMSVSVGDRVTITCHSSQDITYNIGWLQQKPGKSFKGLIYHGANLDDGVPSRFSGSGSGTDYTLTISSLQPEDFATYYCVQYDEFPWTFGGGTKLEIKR | 24

Dear colleague, could you please provide huEGFR^+ mcl-1^-/- MEF EC50 for the binders listed below?
1. AbK-SE (antibody, V domains shown, synthon SE on reduced interchain Cys) VH: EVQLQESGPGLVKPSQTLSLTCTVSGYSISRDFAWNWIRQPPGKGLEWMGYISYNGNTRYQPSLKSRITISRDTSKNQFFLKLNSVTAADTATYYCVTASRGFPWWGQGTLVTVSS VL: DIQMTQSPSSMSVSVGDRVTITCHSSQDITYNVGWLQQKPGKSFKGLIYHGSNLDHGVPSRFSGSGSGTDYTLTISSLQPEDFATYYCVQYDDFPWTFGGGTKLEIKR
2. AbA-ZT (antibody, V domains shown, synthon ZT on reduced interchain Cys) VH: EVQLQESGPGLVKPSQTLSLTCTVSGYSISRDFAWNWIRQPPGKGLEWMGYISYNGNTRYQPSLKSRITISRDTSKNQFFLKLNSVTAADTATYYCVTASRGFPYWGQGTLVTVSS VL: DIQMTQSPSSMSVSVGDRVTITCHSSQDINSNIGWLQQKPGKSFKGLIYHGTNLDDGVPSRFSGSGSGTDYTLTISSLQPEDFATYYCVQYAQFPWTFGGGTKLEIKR
3. AbA-AAD (antibody, V domains shown, synthon AAD on reduced interchain Cys) VH: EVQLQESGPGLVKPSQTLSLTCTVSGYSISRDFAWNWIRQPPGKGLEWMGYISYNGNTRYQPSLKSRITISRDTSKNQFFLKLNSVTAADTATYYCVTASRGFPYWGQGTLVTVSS VL: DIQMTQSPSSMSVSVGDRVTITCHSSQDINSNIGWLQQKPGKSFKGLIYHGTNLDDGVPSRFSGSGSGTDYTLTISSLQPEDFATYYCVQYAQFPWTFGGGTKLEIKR
4. AbB-ZZ (antibody, V domains shown, synthon ZZ on reduced interchain Cys) VH: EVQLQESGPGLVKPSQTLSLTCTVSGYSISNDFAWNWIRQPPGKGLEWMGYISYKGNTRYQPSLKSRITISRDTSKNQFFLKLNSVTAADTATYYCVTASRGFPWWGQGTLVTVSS VL: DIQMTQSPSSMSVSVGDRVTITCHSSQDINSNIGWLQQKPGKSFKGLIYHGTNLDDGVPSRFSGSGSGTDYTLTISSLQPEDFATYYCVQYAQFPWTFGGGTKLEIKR

Ans.
1. 161
2. 104
3. 65
4. 7.4
